- Tested on: microglial cells
- experiment-notes: MTT viability of microglial cells (microglial toxicity); further: test concentration or dose not given here
- Type: cell-based
- experimental-parameters: percentage of MTT viability compared to unstimulated DMSO control cells; Table 2
metric-name: MTT
Entry format: amount then unit.

Asked: Find the measured MTT: item CC(=O)N1c2ccccc2[S+]([O-])c2ccc(Cl)cc21 (centres unmarked) , target or system microglial cells.
Given back: 134.67%

Asked: Now consider CN1CCCCC1CCN1c2ccccc2Sc2ccc(F)cc21 (centres unmarked) and answer again.
Given back: 91.99%

Asked: Same thing, different compound: CC(=O)N1c2ccccc2[S+]([O-])c2ccc(C(F)(F)F)cc21 (centres unmarked)
Given back: 149.90%

Asked: Lookup COc1ccc2c(c1)N(CCC1CCCCN1C(C)=O)c1ccccc1S2 (centres unmarked)
Given back: 106.92%

Asked: And then CC(=O)c1ccc2c(c1)N(C(C)=O)c1ccccc1[S+]2[O-] (centres unmarked) , what is it?
Given back: 158.76%

Asked: Lookup Cc1ccc2c(c1)N(CCC1CCCCN1C)c1cc(C(F)(F)F)ccc1S2 (centres unmarked)
Given back: 51.90%

Asked: Quick one: Cc1cc2c(cc1C)N(CCCN(C)C)c1ccccc1S2
Given back: 82.48%

Asked: Try Cc1cc2c(cc1C)N(CCC1CCCCN1C)c1ccccc1S2 (centres unmarked) next.
Given back: 42.77%

Asked: Could you do the same for COc1ccc2c(c1)N(C(C)=O)c1ccccc1S2 , please?
Given back: 153.72%

Asked: For COc1ccc2c(c1)N(C(C)=O)c1ccccc1[S+]2[O-] (centres unmarked) then?
Given back: 140.38%

Asked: Let us now turn to CC(=O)N(C)CCCN1c2ccccc2Sc2ccc(C(F)(F)F)cc21
Given back: 121.08%
